TARGET_DESC: acetylcholine receptor (Homo sapiens, UniProt P02708)
Sequence (P02708 21-457): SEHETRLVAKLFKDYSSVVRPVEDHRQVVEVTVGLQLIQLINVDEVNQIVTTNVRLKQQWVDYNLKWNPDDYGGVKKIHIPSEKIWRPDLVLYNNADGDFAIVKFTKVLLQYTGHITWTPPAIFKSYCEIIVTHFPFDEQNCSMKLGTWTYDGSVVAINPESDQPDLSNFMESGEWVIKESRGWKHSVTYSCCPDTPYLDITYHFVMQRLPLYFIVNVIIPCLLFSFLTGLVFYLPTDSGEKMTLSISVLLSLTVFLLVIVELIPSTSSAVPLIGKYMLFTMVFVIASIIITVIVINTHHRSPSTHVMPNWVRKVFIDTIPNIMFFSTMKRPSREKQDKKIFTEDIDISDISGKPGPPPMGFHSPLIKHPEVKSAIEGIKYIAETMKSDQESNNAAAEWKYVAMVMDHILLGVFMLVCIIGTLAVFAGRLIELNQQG
ASSAY_EXPLANATION: SPR binding affinity (RU) of optimized 5mer/6mer/7mer peptides, Examples 6-7
TEST_CONDITIONS: SPR, Resonance Units; peptides tested at 10 μM; 6mer-1 Bottom sequence
I'd appreciate it if you could supply Binding affinity values for the items below.
Answer in Ru, number only, no unit symbol.

Dear colleague, I am looking for the recorded Binding affinity of the following substance: 6mer-1-1057 (KRKPVR)
43

Dear colleague, I am looking for the recorded Binding affinity of the following substance: 6mer-1-1118 (KKDTIK)
33

Dear colleague, I am looking for the recorded Binding affinity of the following substance: 6mer-1-1089 (RKFTKK)
31

Dear colleague, I am looking for the recorded Binding affinity of the following substance: 6mer-1-1093 (RRKSDR)
37

Dear colleague, I am looking for the recorded Binding affinity of the following substance: 6mer-1-1066 (RKEDVK)
23

Dear colleague, I am looking for the recorded Binding affinity of the following substance: 6mer-1-1017 (KRANMK)
37

Dear colleague, I am looking for the recorded Binding affinity of the following substance: 6mer-1-1023 (KRIMHK)
39

Dear colleague, I am looking for the recorded Binding affinity of the following substance: 6mer-1-1163 (RKCAFK)
21

Dear colleague, I am looking for the recorded Binding affinity of the following substance: 6mer-1-1143 (KRHEFK)
32

Dear colleague, I am looking for the recorded Binding affinity of the following substance: 6mer-1-1043 (KRAAHR)
30

Dear colleague, I am looking for the recorded Binding affinity of the following substance: 6mer-1-1062 (RRICMR)
27

Dear colleague, I am looking for the recorded Binding affinity of the following substance: 6mer-1-1051 (KKKSFK)
43

Dear colleague, I am looking for the recorded Binding affinity of the following substance: 6mer-1-1099 (RRKTDR)
24

Dear colleague, I am looking for the recorded Binding affinity of the following substance: 6mer-1-1136 (KKIEIK)
34

Dear colleague, I am looking for the recorded Binding affinity of the following substance: 6mer-1-1194 (KKTHAK)
22

Dear colleague, I am looking for the recorded Binding affinity of the following substance: 6mer-1-1109 (KRCCVR)
41

Dear colleague, I am looking for the recorded Binding affinity of the following substance: 6mer-1-1047 (RKATDK)
30

Dear colleague, I am looking for the recorded Binding affinity of the following substance: 6mer-1-1010 (KKPKHK)
33

Dear colleague, I am looking for the recorded Binding affinity of the following substance: 6mer-1-1056 (RRNTAK)
27

Dear colleague, I am looking for the recorded Binding affinity of the following substance: 6mer-1-1025 (KRFAKR)
33

Dear colleague, I am looking for the recorded Binding affinity of the following substance: 6mer-1-1071 (RKTKAK)
38

Dear colleague, I am looking for the recorded Binding affinity of the following substance: 6mer-1-1003 (RKYCHR)
24

Dear colleague, I am looking for the recorded Binding affinity of the following substance: 6mer-1-1046 (RKDPHR)
38

Dear colleague, I am looking for the recorded Binding affinity of the following substance: 6mer-1-1183 (RKIHNK)
35

Dear colleague, I am looking for the recorded Binding affinity of the following substance: 6mer-1-1045 (KKTPGR)
27

Dear colleague, I am looking for the recorded Binding affinity of the following substance: 6mer-1-1108 (RRAHNK)
43

Dear colleague, I am looking for the recorded Binding affinity of the following substance: 6mer-1-1129 (RKDHAR)
39

Dear colleague, I am looking for the recorded Binding affinity of the following substance: 6mer-1-1042 (KKITAR)
40

Dear colleague, I am looking for the recorded Binding affinity of the following substance: 6mer-1-999 (RKATNR)
24

Dear colleague, I am looking for the recorded Binding affinity of the following substance: 6mer-1-1156 (KRYTVR)
37

Dear colleague, I am looking for the recorded Binding affinity of the following substance: 6mer-1-1158 (RKPMMK)
33

Dear colleague, I am looking for the recorded Binding affinity of the following substance: 6mer-1-1034 (KKASDR)
24

Dear colleague, I am looking for the recorded Binding affinity of the following substance: 6mer-1-1026 (RKKCER)
30

Dear colleague, I am looking for the recorded Binding affinity of the following substance: 6mer-1-1037 (RRKNNR)
36

meta.source: patent US20250011363A1
